Tested on: ABUTH: Abutilon theophrasti
Assay: Pre-emergence herbicidal effect
Type: in vivo
Conditions: Table 4a, dosage 20 g of a.i./ha
reported.endpoint: Herbicidal efficacy against ABUTH

1) Cc1ccc2c(c1)C(Nc1ncc(C(C)(C)O)c(C)n1)CCC2 (racemic); 100
2) Cc1cc2c(s1)CCCC2Nc1ncc(C(C)O)c(C)n1 (stereo not shown) [drawing 17, reference compound]; 0
3) Cc1ccc2c(c1)[C@H](Nc1ncc(C(C)O)c(C)n1)CCC2 (stereo partly shown); 90
4) Cc1cc2c(s1)CCCC2Nc1ncc(C(C)(C)O)c(C)n1 (stereo not shown) [drawing 16, reference compound]; 80

* * *

Tested on: VERPE: Veronica persica
Assay: Pre-emergence herbicidal effect
Assay type: in vivo
Settings: dosage 320 g/ha
reported.endpoint: Herbicidal action against VERPE (%)

1) CC1Cc2ccccc2C1Nc1ncc(C(C)(C)O)cn1 (mixture of isomers); 100
2) CCc1ccc2c(c1)[C@H](Nc1ncc(C(C)(C)O)cn1)CC2; 100
3) Cc1cccc2c1CCCC2Nc1ncc(C(C)(C)O)cn1 (racemic); 100
4) CC#CC(C)(O)c1cnc(N[C@H]2c3cc(C)ccc3C[C@@H]2C)nc1 (some centres unmarked); 100
5) Cc1nc(NC2c3ccccc3CC2C)ncc1C(C)(C)O (mixture of isomers); 100
6) CC(C)=CC(C)(O)c1cnc(N[C@H]2c3cc(C)ccc3C[C@@H]2C)nc1 (some centres unmarked); 100
7) Cc1ccc2c(c1)[C@H](Nc1ncc(C(C)(C)O)cn1)[C@@H](C)C2; 100
8) Cc1ccc2c(c1)[C@H](Nc1ncc(C(C)(C)O)cn1)CCO2; 100

* * *

compounds and their reported Herbicidal action against AVEFA
Tested on: AVEFA: Avena fatua
Assay: Post-emergence herbicidal effect
Assay type: in vivo
Conditions: dosage 320 g/ha
reported.endpoint: Herbicidal action against AVEFA (%)

1) Cc1ccc2c(c1)[C@H](Nc1ncc(C(C)(C)O)c(N)n1)[C@@H](C)C2 [drawing 10, reference compound]; 0
2) Cc1ccc2c(c1)[C@H](Nc1ncc(C(C)(C)O)c(N)n1)[C@@H](C)C2 [drawing 9, reference compound]; 0
3) Cc1ccc2c(c1)[C@H](Nc1ncc(C(C)(C)O)cn1)[C@@H](C)C2 [Example 1.4]; 50

* * *

System: VERPE: Veronica persica
Test: Pre-emergence herbicidal effect
Assay type: in vivo
Conditions: dosage 320 g/ha
The following molecules are shown together with reported Herbicidal action against VERPE values.
reported.endpoint: Herbicidal action against VERPE (%)

1. Cc1ccc2c(c1)[C@H](Nc1ncc(C(C)(O)c3ccccc3)cn1)[C@@H](C)C2 (some centres unmarked); 100
2. C=CC(C)(O)c1cnc(N[C@H]2c3cc(C)ccc3C[C@@H]2C)nc1 (some centres unmarked); 100
3. Cc1ccc2c(c1)[C@H](Nc1ncc(C(C)(C)O)cn1)CC2; 100
4. CCc1ccc2c(c1)[C@H](Nc1ncc(C(C)O)c(C)n1)CC2 (some centres unmarked); 100
5. Cc1ccc2c(c1)[C@H](Nc1ncc(C(C)(C)O)c(C(F)F)n1)[C@@H](C)C2; 100
6. CCC(C)(O)c1cnc(N[C@H]2c3cc(C)ccc3C[C@@H]2C)nc1 (some centres unmarked); 100
7. COC(C)(C)c1cnc(N[C@H]2c3cc(C)ccc3C[C@@H]2C)nc1; 100
8. Cc1ccc2c(c1)C(Nc1ncc(C(C)(C)O)cn1)CCC2 (racemic); 100

* * *

Consider the following compounds and their measured Herbicidal action against ECHCG readings.
Tested on: ECHCG: Echinochloa crus-galli
Test: Post-emergence herbicidal effect
Type: in vivo
Settings: dosage 320 g/ha
reported.endpoint: Herbicidal action against ECHCG (%)

1. Cc1ccc2c(c1)C(Nc1ncc(C(C)(C)O)c(C)n1)CCC2 (racemic); 100
2. Cc1ccc2c(c1)[C@H](Nc1ncc(C(C)(C)O)c(C(F)F)n1)[C@@H](C)C2; 80
3. Cc1ccc2c(c1)[C@H](Nc1ncc(C(C)(C)O)cn1)CCO2; 100
4. Cc1ccc2c(c1)[C@H](Nc1ncc(C(C)O)cn1)[C@@H](C)C2 (some centres unmarked); 100
5. Cc1ccc2c(c1)[C@H](Nc1ncc(C(C)(O)C(F)(F)F)cn1)[C@@H](C)C2 (some centres unmarked); 100
6. Cc1ccc2c(c1)[C@H](Nc1ncc(C(C)O)c(C)n1)CC2 (some centres unmarked); 100
7. Cc1ccc2c(c1)[C@H](Nc1ncc(C(C)(C)O)cn1)[C@@H](C)C2; 90
8. CCc1ccc2c(c1)[C@H](Nc1ncc(C(C)(C)O)cn1)CC2; 100
9. Cc1ccc2c(c1)C(Nc1ncc(C(C)(C)O)cn1)CCC2 (racemic); 100
10. Cc1ccc2c(c1)[C@H](Nc1ncc(C(C)O)c(C)n1)CCO2 (some centres unmarked); 80
11. Cc1ccc2c(c1)[C@H](Nc1ncc(C(C)(C)O)c(N)n1)[C@@H](C)C2 [drawing 10, reference compound]; 10
12. Cc1ccc2c(c1)[C@H](Nc1ncc(C(C)(C)O)c(C)n1)[C@@H](C)C2; 100
13. Cc1ccc2c(c1)[C@H](Nc1ncc(C(C)O)c(C)n1)CCC2 (some centres unmarked); 100
14. CCC(C)(O)c1cnc(N[C@H]2c3cc(C)ccc3C[C@@H]2C)nc1 (some centres unmarked); 100
15. CC#CC(C)(O)c1cnc(N[C@H]2c3cc(C)ccc3C[C@@H]2C)nc1 (some centres unmarked); 100
16. Cc1ccc2c(c1)[C@H](Nc1ncc(C(C)(C)O)c(C)n1)CCO2; 100
17. CCC(O)(c1cnc(N[C@H]2c3cc(C)ccc3C[C@@H]2C)nc1)C(F)(F)F (some centres unmarked); 100

* * *

Tested on: ECHCG: Echinochloa crus-galli
Test: Pre-emergence herbicidal effect
Assay type: in vivo
Conditions: Table 4b; pre-emergence as titled; dosage 80 g of a.i./ha
Excerpt: 1. Pre-Emergence Herbicidal Effect and Crop Plant Compatibility Seeds of monocotyledonous and dicotyledonous weed plants and crop plants are placed in plastic or wood fiber pots and covered with soil. […] After the treatment, the pots are placed in a greenhouse and kept under good growth conditions for the trial plants. After about 3 weeks, the effect of the preparations is scored visually in comparison with untreated controls as percentages. […]
Documented Herbicidal efficacy against ECHCG across a set of compounds
reported.endpoint: Herbicidal efficacy against ECHCG

1. Cc1cc2c(s1)CCCC2Nc1ncc(C(C)(C)O)c(C)n1 (stereo not shown) [drawing 18, reference compound]; 30
2. Cc1ccc2c(c1)C(Nc1ncc(C(C)(C)O)c(C)n1)CCC2 (racemic); 70
3. Cc1cc2c(s1)CCCC2Nc1ncc(C(C)O)c(C)n1 (stereo not shown) [drawing 19, reference compound]; 40
4. Cc1ccc2c(c1)[C@H](Nc1ncc(C(C)O)c(C)n1)CCC2 (stereo partly shown); 90

* * *

Items are presented alongside their recorded Herbicidal efficacy against STEME.
Test system: STEME: Stellaria media
Assay: Pre-emergence herbicidal effect
Assay type: in vivo
Conditions: Table 4b; pre-emergence as titled; dosage 80 g of a.i./ha
reported.endpoint: Herbicidal efficacy against STEME

1. Cc1cc2c(s1)CCCC2Nc1ncc(C(C)(C)O)c(C)n1 (stereo not shown) [drawing 18, reference compound]; 30
2. Cc1cc2c(s1)CCCC2Nc1ncc(C(C)O)c(C)n1 (stereo not shown) [drawing 19, reference compound]; 20
3. Cc1ccc2c(c1)C(Nc1ncc(C(C)(C)O)c(C)n1)CCC2 (racemic); 90
4. Cc1ccc2c(c1)[C@H](Nc1ncc(C(C)O)c(C)n1)CCC2 (stereo partly shown); 80

* * *

Tested on: PHBPU: Ipomoea purpurea
Experiment: Pre-emergence herbicidal effect
Type: in vivo
Details: dosage 80 g/ha
reported.endpoint: Herbicidal action against PHBPU (%)

1. Cc1ccc2c(c1)[C@H](Nc1ncc(C(C)(C)O)c(N)n1)[C@@H](C)C2 [drawing 6, reference compound]; 0
2. Cc1ccc2c(c1)[C@H](Nc1ncc(C(C)(C)O)cn1)[C@@H](C)C2; 80
3. Cc1ccc2c(c1)[C@H](Nc1ncc(C(C)O)c(C)n1)[C@@H](C)C2 (stereo partly shown); 80
4. Cc1ccc2c(c1)[C@H](Nc1ncc(C(C)(C)O)c(C)n1)[C@@H](C)C2; 80

* * *

System: ECHCG: Echinochloa crus-galli
Test: Pre-emergence herbicidal effect
Assay type: in vivo
Conditions: pre-emergence; dosage 320 g/ha
reported.endpoint: Herbicidal action against ECHCG (%)

1) Cc1ccc2c(c1)[C@H](Nc1ncc(C(C)(C)O)cn1)CC2; 100
2) Cc1ccc2c(c1)[C@H](Nc1ncc(C(C)O)c(C)n1)[C@@H](C)C2 (stereo partly shown); 100
3) Cc1ccc2c(c1)[C@H](Nc1ncc(C(C)(O)C(F)(F)F)cn1)[C@@H](C)C2 (stereo partly shown); 100
4) COC(C)(C)c1cnc(N[C@H]2c3cc(C)ccc3C[C@@H]2C)nc1; 100

* * *

System: MATIN: Matricaria inodora
Assay: Post-emergence herbicidal effect
Format: in vivo
Conditions: dosage 320 g/ha
reported.endpoint: Herbicidal action against MATIN (%)

1) Cc1ccc2c(c1)[C@H](Nc1ncc(C(C)(C)O)c(N)n1)[C@@H](C)C2 [drawing 12, reference compound]; 60
2) Cc1ccc2c(c1)[C@H](Nc1ncc(C(C)(C)O)cn1)[C@@H](C)C2; 80
3) CC(C)(O)c1cnc(N[C@@H]2CCCc3ccccc32)nc1; 100
4) Cc1ccc2c(c1)[C@H](Nc1ncc(C(C)O)c(C)n1)[C@@H](C)C2 (stereo partly shown); 90

Where these numbers come from: patent US11477982B2
